Taken from patent US10464939B2.

- Experiment description: In vivo pharmacokinetic determination of compound (I), compound A and their metabolites in plasma
- Design: species or system New Zealand White Rabbits
- Condition set: both sexes, New Zealand White, rabbit, po, 10 mg/kg, single oral 10 mg/kg of compound (I), male and female rabbit
- Procedure: In vivo pharmacokinetic determination of compound (I), compound A and their metabolites in New Zealand White Rabbits. Male New Zealand rabbits (Crl: KBL (NZW), Charles River, France) and female New Zealand rabbits (NZW INRA A1077, Centre Lago) were used. […] The formulations were stored at room temperature, protected from light and analysed quantitatively with LC-MS/MS on the day of preparation. […] The lower limit of quantification (LLOQ) for plasma was 1.00 ng/ml for all compounds. […]
Kindly return class 1 if reported Cmax is no lower than 700 ng/mL; return class 0 if it is lower.

compound="O=c1ccc2cc(C(F)(F)c3nnc4ccc(-c5cn[nH]c5)nn34)ccc2[nH]1 [Metabolite 1]" class_label="class 0"
compound="Cn1cc(-c2ccc3nnc(C(F)(F)c4ccc5ncccc5c4)n3n2)cn1 [Compound A, reference compound]" class_label="class 0"
compound="Cn1cc(-c2ccc3nnc(C(F)(F)c4ccc5[nH]c(=O)ccc5c4)n3n2)cn1 [Metabolite 2]" class_label="class 0"
compound=[2H]c1ccc2cc(C(F)(F)c3nnc4ccc(-c5cnn(C)c5)nn34)ccc2n1 class_label="class 1"

Next up:
Asked: Has [2H]c1ccc2cc(C(F)(F)c3nnc4ccc(-c5cn[nH]c5)nn34)ccc2n1 [N-desmethyl metabolite 3] a recorded Cmax greater than or equal to 700 ng/mL?
Given back: class 1

* * *

- Tested on: EBC1
- Experiment description: Proliferation assay with Alamar blue, EBC-1 cells
- Assay type: cell-based
- Condition set: Homo sapiens, EBC-1, 96 h, 4 days incubation
- Protocol: Inhibition of Proliferation of Cancer Cells Carrying Met Amplification and Dependent on Met Signaling by the Compound of Formula (I) Proliferation Assay with Alamar Blue Cells were seeded out in a 96-well plate in 180 μl growth medium. […] After the 4 hours the fluorescence was measured at excitation 530 nm, emission 590 nm. The fluorescence of control (DMSO treatment) was taken as 100% and the fluorescence of cells incubated with compounds was calculated against the control in %. […]
Assign IC50 to each entry below.
Answers are plain numbers, in nM.

compound="Cn1cc(-c2ccc3nnc(C(F)(F)c4ccc5ncccc5c4)n3n2)cn1 [Compound A, reference compound]" target_entity=EBC1 meas_value=13.4

Consider the record given below.
Asked: Requested read-out: IC50. Entry: `[2H]c1ccc2cc(C(F)(F)c3nnc4ccc(-c5cnn(C)c5)nn34)ccc2n1`
Given back: 12

* * *

- Experiment description: In vivo pharmacokinetic determination of compound (I), compound A and their metabolites in plasma
- Design: species or system New Zealand White Rabbits
- Condition set: both sexes, New Zealand White, rabbit, po, 10 mg/kg, single oral 10 mg/kg of compound A, male and female rabbit
Assign AUC(0-inf) to each entry below.
Returns: string containing the number followed by the unit.

molecule="Cn1cc(-c2ccc3nnc(C(F)(F)c4ccc5ncccc5c4)n3n2)cn1 [Compound A, reference compound]" property_label=AUC(0-inf) meas_value="8.22 µg·h/mL"
molecule="FC(F)(c1ccc2ncccc2c1)c1nnc2ccc(-c3cn[nH]c3)nn12 [N-desmethyl metabolite 4]" property_label=AUC(0-inf) meas_value="1.51 µg·h/mL"
molecule="O=c1ccc2cc(C(F)(F)c3nnc4ccc(-c5cn[nH]c5)nn34)ccc2[nH]1 [Metabolite 1]" property_label=AUC(0-inf) meas_value="1.05 µg·h/mL"

Asked: Requested read-out: AUC(0-inf). Entry: Cn1cc(-c2ccc3nnc(C(F)(F)c4ccc5[nH]c(=O)ccc5c4)n3n2)cn1 [Metabolite 2]
Given back: 0.439 µg·h/mL
